system name: T1, recombinant human MCP-4 (human, UniProt Q99616 24-98, limits assumed)
T1 construct: also called rhMCP-4
T1 sequence (Q99616 24-98 limits assumed): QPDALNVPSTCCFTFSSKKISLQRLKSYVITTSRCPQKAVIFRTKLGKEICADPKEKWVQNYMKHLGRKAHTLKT
test description: ELISA, coated antigen
From the text: Determining cross-reactivity of anti-MCP-1 antibodies with other chemokines. […]
# ELISA OD per record follows
Enter your answer as a number in OD450; do not include the unit.

binder	experimental result
anti-MCP-1 mAb 2.4.1 (antibody, V domains shown) VH: QVQLVQSGAEVKKPGASVKVSCKASGYTFTGYYLHWVRQAPGQGLEWMGWINPYNDGTNYAQKFQGRVTMTRDTSISTAYMELSRLRSDDTAVYYCARDIAAAGAVYFDYWGQGTLVTVSS VL: DIQMTQSPSSLSASVGDRVTITCQASQDITTYLNWYQQKPGKAPKLLIYDASNLETGVPSRFSGSGSGTDFTFTISSLQPEDIATYYCQQYDNLPITFGQGTRLEIKR	0.06

Which ELISA OD is listed for anti-MCP-1 mAb 1.2.1 (antibody, V domains shown) VH: QVQLVQSGAEVKKPGASVKVSCKVSGYTFTELSMHWVRQAPGKGLEWMGGFDPEDGETSYAQKFRGRVTMTEDTSTDTAHMELSSLRSEDTAVYYCATNDFWSGYFDYWGQGTLVTVSS VL: DIQMTQSPSSVSASVGDRVTITCRASQGIDIYLAWYQQKPGKAPKLLINAASSLQNGVPSRFGGSGSGTDFTLTISGLQPEDFATYYCQLTYFFPWTFGQGTKVEIKR ? 0.055

Which ELISA OD is listed for anti-MCP-1 mAb 5.3.1 (antibody, V domains shown) VH: QVQLVQSGAEVKKPGASVKVSCKVSGYTLSELSMHWVRQAPGKGLEWMGGFDPEDGETIYAQKFQGRVTMTEDTSTDTAYMELSSLRSEDTAVFYCATKREYSGYFDYWGQGTLVTVSS VL: DIVMTQSPDSLAVSLGERATINCKSSQSVLYSSNSKNYLAWFQQKPGQPPKLLIYWASTRESGVPDRFSGSGSGTDFTLTISRLQAEDVAVYSCQQYFITPWTFGQGTKVELKR ? 0.043
